Just for reference, paper PMC3477164 is where these values come from.

target: T1, Eukaryotic initiation factor 4E (eIF4E), full-length human (human, UniProt P06730 1-217); assay: fluorescence based thermal shift assay; 10 uM eIF4E with 100 uM peptide in PBS, Sypro Red, heated from 20 to 90 °C at 1 °C/min; Kd estimated from the Tm shift (enthalpy of binding taken to be -5 kcal/mol); conditions: both partners purified
T1 construct: eIF4E, human, full length
T1 sequence (P06730 whole entry): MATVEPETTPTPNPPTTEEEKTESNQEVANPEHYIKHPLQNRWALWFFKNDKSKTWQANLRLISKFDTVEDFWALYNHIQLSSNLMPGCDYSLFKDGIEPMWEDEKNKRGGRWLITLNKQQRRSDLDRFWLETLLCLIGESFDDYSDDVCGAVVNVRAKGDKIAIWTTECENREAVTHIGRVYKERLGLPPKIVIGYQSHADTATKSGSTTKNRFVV
Could you please report measured log10 Kd for the items listed next?
Heads up, the numbers here are log10 of Kd in nM units.

Qu. Return log10 Kd for the following binder: KKRYSRDQLVAL (phage display selected 12-mer … with its N-terminal SLH changed to KKR of the eIF4G1 peptide; source: synthetic peptide (Mimotopes), HPLC purified to >90%) [PHAGESOL peptide]
Ans. 1.89

Qu. Tell me measured log10 Kd for KKRYDREFLVGF (eIF4G1 peptide with L10V; source: synthetic peptide (Mimotopes), HPLC purified to >90%) [eIF4G1-L10V peptide] please.
Ans. 3.64

Qu. Annotate the binder KKRYDREQLLGF (eIF4G1 peptide with F8Q; also called eIF4G-F/Q; source: synthetic peptide (Mimotopes), HPLC purified to >90%) [eIF4G1-F8Q peptide] with its measured log10 Kd.
Ans. 3.30

Qu. Please report log10 Kd for the following binder: KKRYSREFLLGF (eIF4G1 peptide with D5S; also called eIF4G-D5S; source: synthetic peptide (Mimotopes), HPLC purified to >90%) [eIF4G1-D5S peptide]
Ans. 2.00

Qu. Return log10 Kd for the following binder: KKRYDRDFLLGF (eIF4G1 peptide with E7D; also called E7D mutant peptide; source: synthetic peptide (Mimotopes), HPLC purified to >90%) [eIF4G1-E7D peptide]
Ans. 2.72

Qu. Let me know recorded log10 Kd for KKRYDREFLLAF (eIF4G1 peptide with G11A; source: synthetic peptide (Mimotopes), HPLC purified to >90%) [eIF4G1-G11A peptide] , thanks.
Ans. 2.30

Qu. For KKRYDREFLLGF (also called eIF4G1-WT; eIF4G1 peptide; source: synthetic peptide (Mimotopes), HPLC purified to >90%) [eIF4G1 wild type peptide] , write its log10 Kd.
Ans. 2.66

Qu. Check the records and state log10 Kd for KKRYDREFLLGL (eIF4G1 peptide with F12L; also called F12L mutant peptide; source: synthetic peptide (Mimotopes), HPLC purified to >90%) [eIF4G1-F12L peptide]
Ans. 2.72
